B1: library; numbered along this chain (parent)
chain: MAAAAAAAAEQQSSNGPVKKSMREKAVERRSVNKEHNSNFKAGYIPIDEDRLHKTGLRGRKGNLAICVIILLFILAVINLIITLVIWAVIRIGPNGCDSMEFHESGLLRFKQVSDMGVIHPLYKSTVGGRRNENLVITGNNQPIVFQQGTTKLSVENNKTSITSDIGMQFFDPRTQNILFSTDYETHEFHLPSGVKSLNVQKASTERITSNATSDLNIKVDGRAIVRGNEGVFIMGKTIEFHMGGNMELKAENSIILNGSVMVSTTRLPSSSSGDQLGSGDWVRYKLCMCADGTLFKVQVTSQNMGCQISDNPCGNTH

- Variants of: B1
- test: SGCB cell-surface expression functional score (HA stain, bin4 vs bin1, normalised to synonymous) (log10 ratio); higher = more cell-surface SGCB (functional)
Returns one of Criterion met or Criterion not met; Criterion met when SGCB cell-surface expression functional score (log10) is >= -0.7.

| mutation_label | cat |
| --- | --- |
| M305P | Criterion met |
| S181F | Criterion not met |
| A76L | Criterion met |
| E49T | Criterion met |
| Q147F | Criterion met |
| S214L | Criterion not met |
| G259L | Criterion met |
| H120D | Criterion met |

# input Dear colleague, could you confirm whether L277N has SGCB cell-surface expression functional score (log10) at or above -0.7?
# output Criterion met

# input Dear colleague, could you confirm whether N140I has SGCB cell-surface expression functional score (log10) at or above -0.7?
# output Criterion met

# input Dear colleague, could you confirm whether F180V has SGCB cell-surface expression functional score (log10) at or above -0.7?
# output Criterion not met

Just for reference, the supplement of paper PMC10266784 is where these values come from.
